# Read-out: Tissue plasminogen activator (tPA), PLAT (gene 5327)
# Assay Explanation: BSK_BE3C_tPA: BioMAP Diversity Plus: BE3C Assay for Tissue plasminogen activator (tPA) Biomarker Activity (AID 2283041)
# Condition Label: primary human bronchial epithelial cells; actives raise or lower the signal
Calls of active or inactive are those of the source. Rule for the calls: active = hit-call score of the fitted dose curve at least 0.9, where 1 is the maximum; inactive = score below 0.9.
# valid calls are 1.0 (active), 0.0 (inactive); nothing else

Use these answered entries as a reference point.
CC(=O)NC1(c2cccc(F)c2)CCN(CC[C@@]2(c3ccc(Cl)c(Cl)c3)CN(c3ccccc3)C(=O)CO2)CC1
1.0
COCC(C)O (stereo not drawn)
0.0

Lab log entry: OC1CCCCC1 — outcome as called in the assay?
0.0

Look up the recorded call for Nc1cccc2c(N)cccc12 in this test.
0.0
